Assay: Toxicity liver stage against HepG2, at 10uM
Assay type: cell-based
Parameters: test concentration 10 uM, cell line HepG2-A16-CD81EGFP
Details: human, HepG2-A16-CD81EGFP cells; read-out: INHIBITION
property name: cytotoxicity at 10 µM (%)
Respond with the bare value in %.

Cc1cccc(NC(=O)N2CCCn3cnc(CN(C)C(C)C)c3C2)c1 ... 8.18
C[C@@H](O)CNC(=O)CCc1nc2cccnc2[nH]1 ... -6.9
N#Cc1c2n(c3c(=O)[nH]cnc13)CCCCC2 ... 5.5
O=C(Cc1ccc(-n2cnnn2)cc1)Nc1nncs1 ... 5.47
O=C(Cc1cccc(F)c1)N1CCc2ncnc(NC3CCC3)c2CC1 ... -105
CC(=O)N1CCC(C(=O)NCCN2CCCC(C)C2)CC1 (stereo not drawn) ... 10.7
Cc1cc(C(=O)N2CCCC(C)C2)ccc1NCc1nc(C2CC2)no1 (stereo not drawn) ... -8.38
Cc1cc(C2CCCN2Cc2ccc(S(=O)(=O)N3CCCC3)o2)on1 (stereo not drawn) ... -11.9
COCCN1CCC2(CCC(=O)N2Cc2csc(C)n2)CC1 ... 2.22
COc1cc(N2C[C@@H]3COC[C@]3(C(=O)NC3CC(F)(F)C3)C2)ncn1 ... 14.7

Ask | Consider the compound shown here: COc1c(F)cc(CN2CCC3(CC2)CN(C)C(=O)O3)cc1Cl What is its recorded cytotoxicity at 10 µM?
Reply | 8.08

Ask | Consider the compound shown here: CSc1ccc(C(=O)N2CC(=O)N(CC3CC3)CC(O)C2)cc1 (stereo not drawn) What is its recorded cytotoxicity at 10 µM?
Reply | 0.174

Ask | Consider the compound shown here: O=C(NCCc1nnc2n1CCCCC2)N1CCC2(CCOC2)C1 (stereo not drawn) What is its recorded cytotoxicity at 10 µM?
Reply | 4.18

Ask | Consider the compound shown here: c1cnc(N2C[C@H]3CCN(CC4CC4)C[C@H]3C2)cn1 What is its recorded cytotoxicity at 10 µM?
Reply | -108

Ask | Consider the compound shown here: COc1cc(N2CCC3(CC2)CC(N2CCOCC2)C3)ncn1 What is its recorded cytotoxicity at 10 µM?
Reply | -6.81

Ask | Consider the compound shown here: Cn1cc(CN2CCc3ncnc(N4CCOCC4)c3CC2)cn1 What is its recorded cytotoxicity at 10 µM?
Reply | -3.46

Ask | Consider the compound shown here: O=C(c1ncc[nH]1)N1CCC(n2cc(-c3cccc(Cl)c3)nn2)CC1 What is its recorded cytotoxicity at 10 µM?
Reply | 5.28

Ask | Consider the compound shown here: O=C(Cn1ccc2ccc(Br)cc21)NC[C@@H]1CCCN2CCCC[C@H]12 What is its recorded cytotoxicity at 10 µM?
Reply | 14.7
